Assay: In vitro permeability experiment, MDCK wild type cells
Conditions: dog, Papp B-A Mean, MDCK-Wild type, B-A, 5 μM, mean
readout.type: Papp B→A at 90 min, 5 µM (×10⁻⁶ cm/s)
Record the value in ×10⁻⁶ cm/s, omitting the unit from your answer.

Task: For the compound COCCc1ccc(OCC(O)CNC(C)C)cc1 (stereo not shown) , what Papp B→A at 90 min, 5 µM is on record?
Output: 21.3

* * *

Experiment: In vivo pharmacokinetic experiment in mice
Set-up: species or system CD-1 female mice
Conditions: female, CD-1, plasma; mouse, oral administration 10 mg/kg; read-out: Cmax
Experimental: CD-1 female mice aged 7 to 10 weeks were intravenously administered and orally administered at a dose of 2 mg/kg and 10 mg/kg, respectively. […] The animals were weighed before administration, and the administration volume was calculated according to the body weight. […] The plasma concentrations were processed using a non-compartmental model of Phoenix WinNonlin™ version 8.3 (Certara) pharmacokinetic software, and the pharmacokinetic parameters were calculated using a linear-log trapezoidal method.
readout.type: Cmax (ng/mL)
Record the value in ng/mL, omitting the unit from your answer.

Task: For the molecule Cc1cc2c(C(N)=O)c(N)n(-c3c(C)ccc(O)c3C)c2nc1C [RP-6306, reference compound] , what Cmax is on record?
Output: 881

* * *

System: P-glycoprotein (P-gp, MDR1)
Test: in vitro
Details: dog, MDCK-MDR1, Papp B-A Mean
For each of the molecules below, state its Papp B→A at 90 min, 5 µM.
Record the value in ×10⁻⁶ cm/s, omitting the unit from your answer.

Task: GET /values?readout=Papp B→A at 90 min, 5 µM&system=P-glycoprotein (P-gp, MDR1)&item= Cc1cc2c(C(N)=O)c(N)n(-c3c(C)ccc(O)c3C)c2nc1C [RP-6306, reference compound]
Output: 36.9

Task: GET /values?readout=Papp B→A at 90 min, 5 µM&system=P-glycoprotein (P-gp, MDR1)&item= C[C@H]1O[C@@H](O[C@H]2[C@@H](O)C[C@H](O[C@H]3[C@@H](O)C[C@H](O[C@H]4CC[C@@]5(C)[C@H](CC[C@@H]6[C@@H]5C[C@@H](O)[C@]5(C)[C@@H](C7=CC(=O)OC7)CC[C@]65O)C4)O[C@@H]3C)O[C@@H]2C)C[C@H](O)[C@@H]1O
Output: 20.6

* * *

Target: recombinant protein MYT1 (Homo sapiens (Human))
Sequence (Q99640 whole entry): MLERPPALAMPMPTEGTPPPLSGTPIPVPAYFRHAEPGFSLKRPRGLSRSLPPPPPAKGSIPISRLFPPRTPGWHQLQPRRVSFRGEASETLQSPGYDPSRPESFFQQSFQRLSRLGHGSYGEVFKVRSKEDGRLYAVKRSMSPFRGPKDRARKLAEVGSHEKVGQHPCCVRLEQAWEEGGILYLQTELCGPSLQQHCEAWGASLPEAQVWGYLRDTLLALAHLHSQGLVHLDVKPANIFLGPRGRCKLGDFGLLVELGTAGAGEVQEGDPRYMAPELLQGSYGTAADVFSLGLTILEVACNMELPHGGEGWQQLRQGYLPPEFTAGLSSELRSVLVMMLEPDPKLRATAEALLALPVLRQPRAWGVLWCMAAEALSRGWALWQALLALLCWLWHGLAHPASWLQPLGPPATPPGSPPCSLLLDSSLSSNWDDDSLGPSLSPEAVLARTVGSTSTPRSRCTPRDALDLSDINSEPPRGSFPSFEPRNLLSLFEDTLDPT
Test: In vitro assay for inhibiting MYT1 kinase activity (ADP-GLO)
Details: 10 μM ATP, read-out: Inhibitory activity against recombinant protein MYT1 IC50
For each of the compounds below, state its IC50.

Task: For the compound Cc1ccc(O)c(C)c1-n1c(N)c(C(N)=O)c2cc3c(nc21)C=CCC3 , what IC50 is on record?
Output: ≤ 200 nM

Task: For the compound Cc1cc2c(C(N)=O)c(N)n(-c3c(C(F)(F)F)ccc(O)c3C)c2nc1C#N , what IC50 is on record?
Output: ≤ 200 nM

Task: For the compound Cc1cc2c(C(N)=O)c(N)n(-c3c(C)ccc(O)c3C)c2nc1C#N , what IC50 is on record?
Output: ≤ 200 nM

* * *

Test: In vivo pharmacokinetic experiment in mice
Design: species or system CD-1 female mice
Conditions: female, CD-1, plasma, iv; mouse, injection 2 mg/kg
readout.type: AUC(0-t) (ng·h/mL)
Record the value in ng·h/mL, omitting the unit from your answer.

Task: For the compound Cc1cc2c(C(N)=O)c(N)n(-c3c(C)ccc(O)c3C)c2nc1C [RP-6306, reference compound] , what AUC(0-t) is on record?
Output: 376

* * *

For each of the compounds below, state its pIC50.
Test system: MIA PaCa-2 cells
Test: In vitro anti-proliferative activity in combination with gemcitabine against MIA PaCa-2 cells
Type: cell-based
Conditions: Homo sapiens, MIA PaCa-2, 72 h, read-out: Anti-proliferative activity against MIA PaCa-2 cells (20 nM gemcitabine) IC50, with 20 nM gemcitabine, 72 h, intracellular ATP content
Quick note: pIC50 means taking -log10 of the concentration in moles per liter.

Task: For the compound Cc1cc2c(C(N)=O)c(N)n(-c3c(C)ccc(O)c3C)c2nc1C [RP-6306, reference compound] , what pIC50 is on record?
Output: 7.54

Task: For the compound Cc1cc2c(C(N)=O)c(N)n(-c3c(C)ccc(O)c3C)c2nc1C#N [Compound 12] , what pIC50 is on record?
Output: 6.64

* * *

Test system: MIA PaCa-2 cells
Assay: In vitro anti-proliferative activity in combination with gemcitabine against MIA PaCa-2 cells
Type: cell-based
Conditions: Homo sapiens, MIA PaCa-2, 72 h, read-out: Anti-proliferative activity against MIA PaCa-2 cells (20 nM gemcitabine) IC50, with 20 nM gemcitabine, 72 h, intracellular ATP content
readout.type: IC50

Task: For the molecule Cc1cc2c(C(N)=O)c(N)n(-c3c(C)cc4cc[nH]c4c3C)c2nc1C , what IC50 is on record?
Output: > 1 µM

Task: For the molecule Cc1cc2c(C(N)=O)c(N)n(-c3c(C)cc4c(c3C)NCC4)c2nc1C , what IC50 is on record?
Output: > 1 µM

Task: For the molecule Cc1cc2c(C(N)=O)c(N)n(-c3c(C)c(O)cc4c3CCC4)c2nc1C , what IC50 is on record?
Output: > 1 µM
